molecular target: furin, P09958; assay: furin cleavage Z-score vs untreated control; higher = more cleavage, active = 3.5 or more, inactive = 1 or less, 8 variable residues between constant flanks; settings: 15 min;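 note: purified furin at 1:10 enzyme:substrate in 50 mM HEPES pH 7.5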
Sequence (P09958 whole entry): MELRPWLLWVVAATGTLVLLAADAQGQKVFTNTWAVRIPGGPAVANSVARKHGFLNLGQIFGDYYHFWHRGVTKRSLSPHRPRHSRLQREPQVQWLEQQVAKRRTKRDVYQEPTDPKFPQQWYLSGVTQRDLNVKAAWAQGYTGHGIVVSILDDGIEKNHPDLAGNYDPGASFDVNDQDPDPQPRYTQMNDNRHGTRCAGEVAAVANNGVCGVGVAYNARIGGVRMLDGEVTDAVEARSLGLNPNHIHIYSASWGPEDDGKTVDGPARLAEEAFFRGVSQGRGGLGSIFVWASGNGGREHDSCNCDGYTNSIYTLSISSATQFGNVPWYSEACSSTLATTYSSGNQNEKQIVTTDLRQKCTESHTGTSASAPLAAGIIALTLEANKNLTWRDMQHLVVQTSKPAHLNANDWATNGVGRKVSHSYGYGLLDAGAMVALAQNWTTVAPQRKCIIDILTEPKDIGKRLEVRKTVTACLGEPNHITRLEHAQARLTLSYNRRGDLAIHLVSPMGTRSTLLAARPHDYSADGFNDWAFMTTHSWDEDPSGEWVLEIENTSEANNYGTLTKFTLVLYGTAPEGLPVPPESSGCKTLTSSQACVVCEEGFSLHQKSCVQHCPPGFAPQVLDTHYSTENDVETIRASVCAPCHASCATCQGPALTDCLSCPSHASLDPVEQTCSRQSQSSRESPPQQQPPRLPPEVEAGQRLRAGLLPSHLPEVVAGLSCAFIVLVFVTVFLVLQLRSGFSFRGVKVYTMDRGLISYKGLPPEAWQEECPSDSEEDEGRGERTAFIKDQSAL
The list shows a part of the results. The hit rate among all sequences tested is not known here.
Short version: furin cleavage Z-score at least 7 is 1 (yes), less is 0 (no).

A selection of reference data follows.
query-sequence: CAKKGRGKRTAGNASASA [FS-41]
group: 1 (yes)

query-sequence: CALNGREHRSAGNASASA [FS-353]
group: 0 (no)

query-sequence: CAGGGRTRREAGNASASA [FS-427]
group: 0 (no)

query-sequence: CAEVVTSTWPAGNASASA [HC2259]
group: 0 (no)

query-sequence: CAKKGRNRRTAGNASASA [FS-935]
group: 1 (yes)

Turning now to a further sequence:
Prompt: Tell me whether furin cleavage Z-score is at least 7 here: CARLKRSPDKAGNASASA [FS-2277]
Response: 1 (yes)
